# Procedure text: Oral bioavailability in Sprague-Dawley rat at 10 mg/kg by HPLC-MS analysis
# Type: ADME, organism-based
# Recorded conditions: in vivo
Reported endpoint: bioavailability (%)

Cc1ccc(NC(=O)C2(C(=O)Nc3ccc(Nc4ncc(F)c(-c5cc(F)c6nc(C)n(C(C)C)c6c5)n4)cc3)CC2)cc1 :: 60

###

# Experimental target: CDK4/Cyclin D3 (Homo sapiens)
# Sequence (P11802 whole entry): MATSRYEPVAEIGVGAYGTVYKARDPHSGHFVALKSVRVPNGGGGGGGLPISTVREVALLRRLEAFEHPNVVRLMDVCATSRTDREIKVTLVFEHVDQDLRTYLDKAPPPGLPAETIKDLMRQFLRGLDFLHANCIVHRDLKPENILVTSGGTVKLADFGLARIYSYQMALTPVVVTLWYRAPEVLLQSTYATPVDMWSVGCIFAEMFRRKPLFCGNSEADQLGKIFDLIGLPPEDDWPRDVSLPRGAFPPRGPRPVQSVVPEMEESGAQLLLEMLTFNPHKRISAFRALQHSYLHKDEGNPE
# Sequence (P30281 whole entry, further chain): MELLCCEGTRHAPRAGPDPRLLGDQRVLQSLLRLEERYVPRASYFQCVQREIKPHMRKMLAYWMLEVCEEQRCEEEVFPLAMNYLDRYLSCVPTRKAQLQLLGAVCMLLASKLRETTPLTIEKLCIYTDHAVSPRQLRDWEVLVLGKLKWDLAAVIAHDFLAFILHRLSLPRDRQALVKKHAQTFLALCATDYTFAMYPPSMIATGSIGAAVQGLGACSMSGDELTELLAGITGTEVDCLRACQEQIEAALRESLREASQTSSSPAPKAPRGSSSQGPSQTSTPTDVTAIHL
# Procedure text: Inhibition of recombinant full length human CDK4/Cyclin D3 using Rb-fragmen as substrate incubated for 40 mins by [gamma-33P]-ATP based radiometric assay
pIC50: −log10 of the molar value.
Reported endpoint: pIC50

Cc1ccc(NC(=O)C2(C(=O)Nc3ccc(Nc4ncc(F)c(-c5cc(F)c6nc(C)n(C(C)C)c6c5)n4)cc3)CC2)cc1 :: 7.34

###

# Procedure text: AUC (0 to t) in Sprague-Dawley rat at 10 mg/kg, iv by HPLC-MS analysis
# Assay type: ADME, organism-based
# Recorded conditions: in vivo
Reported endpoint: AUC(0-t) (ng·h/mL)

Cc1ccc(NC(=O)C2(C(=O)Nc3ccc(Nc4ncc(F)c(-c5cc(F)c6nc(C)n(C(C)C)c6c5)n4)cc3)CC2)cc1 :: 10000

###

# Procedure text: MRT (0 to t) in Sprague-Dawley rat at 10 mg/kg at 10 mg/kg, po by HPLC-MS analysis
# Type: ADME, organism-based
# Recorded conditions: in vivo
Reported endpoint: MRT last (h)

Cc1ccc(NC(=O)C2(C(=O)Nc3ccc(Nc4ncc(F)c(-c5cc(F)c6nc(C)n(C(C)C)c6c5)n4)cc3)CC2)cc1 :: 4

###

# Procedure text: Cmax in Sprague-Dawley rat at 10 mg/kg, po by HPLC-MS analysis
# Format: ADME, organism-based
# Design: dose 10 mg/kg, route oral
# Recorded conditions: in vivo
Reported endpoint: Cmax (ng/mL)

Cc1ccc(NC(=O)C2(C(=O)Nc3ccc(Nc4ncc(F)c(-c5cc(F)c6nc(C)n(C(C)C)c6c5)n4)cc3)CC2)cc1 :: 1000

###

# Experimental target: CDK4/Cyclin D3 (Homo sapiens) (UniProt P11802+P30281)
# Procedure text: Inhibition of recombinant full length human CDK4/Cyclin D3 using Rb-fragmen as substrate at 1 uM incubated for 40 mins by [gamma-33P]-ATP based radiometric assay relative to control
# Assay type: protein-complex assay
Reported endpoint: inhibition (%)

CC(C)n1nnc2ccc(-c3nc(Nc4ccc(NC(=O)C5(C(=O)Nc6cccc(F)c6)CC5)cc4)ncc3F)cc21 :: 79
Cc1nc2c(F)cc(-c3nc(Nc4ccc(NC(=O)C5(C(=O)Nc6ccc(F)cc6)CC5)cc4)ncc3F)cc2n1C(C)C :: 98
CC(C)n1nnc2ccc(-c3nc(Nc4ccc(NC(=O)C5(C(=O)Nc6ccc(Cl)cc6)CC5)cc4)ncc3F)cc21 :: 21
Cc1nc2c(F)cc(-c3nc(Nc4ccc(CNC(=O)C5(C(=O)Nc6ccc(Br)cc6)CC5)cc4)ncc3F)cc2n1C(C)C :: 93

###

# Procedure text: Clearance in Sprague-Dawley rat at 10 mg/kg, po by HPLC-MS analysis
# Assay type: ADME, organism-based
# Recorded conditions: in vivo
Reported endpoint: CL/F (mL/min/kg)

Cc1ccc(NC(=O)C2(C(=O)Nc3ccc(Nc4ncc(F)c(-c5cc(F)c6nc(C)n(C(C)C)c6c5)n4)cc3)CC2)cc1 :: 33.3

###

# Procedure text: Clearance in Sprague-Dawley rat at 10 mg/kg, iv by HPLC-MS analysis
# Type: ADME, organism-based
# Recorded conditions: in vivo
Reported endpoint: clearance (mL/min/kg)

Cc1ccc(NC(=O)C2(C(=O)Nc3ccc(Nc4ncc(F)c(-c5cc(F)c6nc(C)n(C(C)C)c6c5)n4)cc3)CC2)cc1 :: 16.7

###

# Procedure text: Half life in Sprague-Dawley rat at 10 mg/kg, iv by HPLC-MS analysis
# Format: ADME, organism-based
# Recorded conditions: in vivo
Reported endpoint: half-life (h)

Cc1ccc(NC(=O)C2(C(=O)Nc3ccc(Nc4ncc(F)c(-c5cc(F)c6nc(C)n(C(C)C)c6c5)n4)cc3)CC2)cc1 :: 2

###

# Procedure text: MRT (0 to t) in Sprague-Dawley rat at 10 mg/kg, iv by HPLC-MS analysis
# Format: ADME, organism-based
# Recorded conditions: in vivo
Reported endpoint: MRT last (h)

Cc1ccc(NC(=O)C2(C(=O)Nc3ccc(Nc4ncc(F)c(-c5cc(F)c6nc(C)n(C(C)C)c6c5)n4)cc3)CC2)cc1 :: 2

###

# Procedure text: AUC (0 to t) in Sprague-Dawley rat at 10 mg/kg, po by HPLC-MS analysis
# Format: ADME, organism-based
# Recorded conditions: in vivo
Reported endpoint: AUC(0-t) (ng·h/mL)

Cc1ccc(NC(=O)C2(C(=O)Nc3ccc(Nc4ncc(F)c(-c5cc(F)c6nc(C)n(C(C)C)c6c5)n4)cc3)CC2)cc1 :: 6000

###

Property: pIC50; scope: individual molecules
# Tested on: HeLa
# Procedure text: Antiproliferative activity against human HeLa cells assessed as reduction in cell viability measured after 72 hrs by CCK8 assay
# Format: functional, cell-based
pIC50: −log10 of the molar value.
Reported endpoint: pIC50

Cc1ccc(NC(=O)C2(C(=O)NCc3ccc(Nc4ncc(F)c(-c5cc(F)c6nc(C)n(C(C)C)c6c5)n4)cc3)CC2)cc1 :: 6.60
Cc1cccc(NC(=O)C2(C(=O)Nc3ccc(Nc4ncc(F)c(-c5cc(F)c6nc(C)n(C(C)C)c6c5)n4)cc3)CC2)c1 :: 6.75
Cc1nc2c(F)cc(-c3nc(Nc4ccc(CNC(=O)C5(C(=O)Nc6ccc(Br)cc6)CC5)cc4)ncc3F)cc2n1C(C)C :: 6.48
Cc1nc2c(F)cc(-c3nc(Nc4ccc(NC(=O)C5(C(=O)Nc6ccc(F)cc6)CC5)cc4)ncc3F)cc2n1C(C)C :: 6.72
Cc1nc2c(F)cc(-c3nc(Nc4ccc(NC(=O)C5(C(=O)Nc6ccc(Br)cc6)CC5)cc4)ncc3F)cc2n1C(C)C :: 6.22
Cc1nc2c(F)cc(-c3nc(Nc4ccc(NC(=O)C5(C(=O)Nc6cccc(F)c6)CC5)cc4)ncc3F)cc2n1C(C)C :: 6.98
CCN1CCN(Cc2ccc(Nc3ncc(F)c(-c4cc(F)c5nc(C)n(C(C)C)c5c4)n3)nc2)CC1 :: 6.11

###

# Experimental target: Cyclin-dependent kinase 1/cyclin B1 (Homo sapiens)
# Sequence (P06493 whole entry): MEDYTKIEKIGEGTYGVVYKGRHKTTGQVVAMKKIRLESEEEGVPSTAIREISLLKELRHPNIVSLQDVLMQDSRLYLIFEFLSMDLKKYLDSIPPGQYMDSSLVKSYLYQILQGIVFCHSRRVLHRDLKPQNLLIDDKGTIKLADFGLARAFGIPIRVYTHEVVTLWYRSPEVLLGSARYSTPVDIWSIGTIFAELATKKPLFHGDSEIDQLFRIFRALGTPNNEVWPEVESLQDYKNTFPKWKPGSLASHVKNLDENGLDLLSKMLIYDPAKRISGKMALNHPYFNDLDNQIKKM
# Sequence (P14635 whole entry, further chain): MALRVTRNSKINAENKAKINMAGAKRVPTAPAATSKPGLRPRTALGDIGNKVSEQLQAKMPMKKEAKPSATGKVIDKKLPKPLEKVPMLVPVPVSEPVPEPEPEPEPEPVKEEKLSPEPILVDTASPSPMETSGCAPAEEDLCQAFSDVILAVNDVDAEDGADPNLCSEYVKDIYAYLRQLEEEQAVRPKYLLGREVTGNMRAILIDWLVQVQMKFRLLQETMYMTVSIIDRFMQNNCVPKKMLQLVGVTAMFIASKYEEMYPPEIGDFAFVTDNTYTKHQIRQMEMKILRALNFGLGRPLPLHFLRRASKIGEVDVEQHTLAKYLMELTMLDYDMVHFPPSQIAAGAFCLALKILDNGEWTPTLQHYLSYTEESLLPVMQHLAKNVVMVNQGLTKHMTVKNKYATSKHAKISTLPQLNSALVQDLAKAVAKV
# Procedure text: Inhibition of recombinant human full length CDK1/CyclinB using histone H1 as substrate incubated for 40 mins in presence of [gamma-33P]-ATP by scintillation counting method
Reported endpoint: IC50 (nM)

Cc1ccc(NC(=O)C2(C(=O)Nc3ccc(Nc4ncc(F)c(-c5cc(F)c6nc(C)n(C(C)C)c6c5)n4)cc3)CC2)cc1 :: 247

###

Property: inhibition; scope: individual compounds
# Experimental target: Vascular endothelial growth factor receptor 2 (Homo sapiens)
# Sequence (P35968 whole entry): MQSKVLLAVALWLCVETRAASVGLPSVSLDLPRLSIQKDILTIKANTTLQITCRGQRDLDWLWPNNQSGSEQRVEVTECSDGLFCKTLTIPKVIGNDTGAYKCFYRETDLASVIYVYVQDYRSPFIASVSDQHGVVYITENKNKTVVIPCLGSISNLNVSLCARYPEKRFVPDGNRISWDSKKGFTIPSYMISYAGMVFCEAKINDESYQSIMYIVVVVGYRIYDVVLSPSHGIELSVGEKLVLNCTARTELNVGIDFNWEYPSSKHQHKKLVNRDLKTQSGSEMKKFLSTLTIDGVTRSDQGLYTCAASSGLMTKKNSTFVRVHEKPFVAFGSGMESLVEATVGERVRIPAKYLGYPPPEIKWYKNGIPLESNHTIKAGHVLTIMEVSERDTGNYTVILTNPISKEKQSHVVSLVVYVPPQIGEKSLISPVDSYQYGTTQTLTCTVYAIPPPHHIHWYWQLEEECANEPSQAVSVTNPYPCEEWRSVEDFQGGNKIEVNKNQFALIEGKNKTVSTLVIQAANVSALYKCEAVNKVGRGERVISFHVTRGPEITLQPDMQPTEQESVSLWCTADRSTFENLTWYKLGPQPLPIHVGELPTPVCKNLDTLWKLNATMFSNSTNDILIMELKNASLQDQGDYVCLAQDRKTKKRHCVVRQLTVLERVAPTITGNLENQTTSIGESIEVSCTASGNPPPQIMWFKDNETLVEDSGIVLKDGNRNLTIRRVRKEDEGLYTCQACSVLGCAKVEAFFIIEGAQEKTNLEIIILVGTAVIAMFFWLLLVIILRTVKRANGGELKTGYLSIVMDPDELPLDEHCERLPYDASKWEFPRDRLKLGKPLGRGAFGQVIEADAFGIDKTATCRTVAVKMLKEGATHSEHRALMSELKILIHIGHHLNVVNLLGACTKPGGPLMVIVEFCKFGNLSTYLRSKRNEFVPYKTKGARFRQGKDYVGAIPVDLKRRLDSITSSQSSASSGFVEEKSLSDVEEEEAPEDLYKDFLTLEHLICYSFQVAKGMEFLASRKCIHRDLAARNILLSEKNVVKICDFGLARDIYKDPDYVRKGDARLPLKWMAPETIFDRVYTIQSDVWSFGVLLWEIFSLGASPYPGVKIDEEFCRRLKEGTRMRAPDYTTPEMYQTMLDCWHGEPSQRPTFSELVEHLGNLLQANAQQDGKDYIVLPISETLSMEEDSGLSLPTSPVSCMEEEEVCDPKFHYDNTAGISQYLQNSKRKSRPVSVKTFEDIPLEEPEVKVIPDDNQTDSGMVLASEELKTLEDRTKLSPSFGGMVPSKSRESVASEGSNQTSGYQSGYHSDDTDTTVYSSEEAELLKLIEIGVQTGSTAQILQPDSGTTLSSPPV
# Procedure text: Inhibition of recombinant human VEGFR2 (790 to end residues) using myelin ba as substrate at 1 uM incubated for 40 mins by [gamma-33P]-ATP based radiometric assay relative to control
Reported endpoint: inhibition (%)

Cc1nc2c(F)cc(-c3nc(Nc4ccc(NC(=O)C5(C(=O)Nc6cccc(Br)c6)CC5)cc4)ncc3F)cc2n1C(C)C :: 90
CN(C)C(=O)c1cc2cnc(Nc3ccc(NC(=O)C4(C(=O)Nc5ccc(F)cc5)CC4)cc3)nc2n1C1CCCC1 :: 0
Cc1cccc(NC(=O)C2(C(=O)Nc3ccc(Nc4ncc(F)c(-c5ccc6nnn(C(C)C)c6c5)n4)cc3)CC2)c1 :: 73
Cc1nc2c(F)cc(-c3nc(Nc4ccc(NC(=O)C5(C(=O)Nc6cccc(F)c6)CC5)cc4)ncc3F)cc2n1C(C)C :: 90
CC(C)n1nnc2ccc(-c3nc(Nc4ccc(NC(=O)C5(C(=O)Nc6ccc(C(F)(F)F)cc6)CC5)cc4)ncc3F)cc21 :: 56
Cc1nc2c(F)cc(-c3nc(Nc4ccc(CNC(=O)C5(C(=O)Nc6ccc(Cl)c(C(F)(F)F)c6)CC5)cc4)ncc3F)cc2n1C(C)C :: 57
Cc1nc2c(F)cc(-c3nc(Nc4ccc(NC(=O)C5(C(=O)Nc6ccc(F)cc6)CC5)cc4)ncc3F)cc2n1C(C)C :: 91
Cc1nc2c(F)cc(-c3nc(Nc4ccc(CNC(=O)C5(C(=O)Nc6ccc(C(F)(F)F)cc6)CC5)cc4)ncc3F)cc2n1C(C)C :: 74
COc1cc2nccc(Oc3ccc(NC(=O)C4(C(=O)Nc5ccc(F)cc5)CC4)cc3)c2cc1OC [CABOZANTINIB] :: 101
Cc1nc2c(F)cc(-c3nc(Nc4ccc(NC(=O)C5(C(=O)Nc6cccc(C(F)(F)F)c6)CC5)cc4)ncc3F)cc2n1C(C)C :: 80
CC(C)n1nnc2ccc(-c3nc(Nc4ccc(NC(=O)C5(C(=O)Nc6cccc(Br)c6)CC5)cc4)ncc3F)cc21 :: 55
CC(C)n1nnc2ccc(-c3nc(Nc4ccc(NC(=O)C5(C(=O)Nc6ccc(Cl)cc6)CC5)cc4)ncc3F)cc21 :: 59
Cc1cccc(NC(=O)C2(C(=O)Nc3ccc(Nc4ncc(F)c(-c5cc(F)c6nc(C)n(C(C)C)c6c5)n4)cc3)CC2)c1 :: 95
Cc1nc2c(F)cc(-c3nc(Nc4ccc(NC(=O)C5(C(=O)Nc6ccc(Br)cc6)CC5)cc4)ncc3F)cc2n1C(C)C :: 91
CC(C)n1nnc2ccc(-c3nc(Nc4ccc(NC(=O)C5(C(=O)Nc6ccc(F)cc6)CC5)cc4)ncc3F)cc21 :: 84
CC(C)n1nnc2ccc(-c3nc(Nc4ccc(NC(=O)C5(C(=O)Nc6cccc(F)c6)CC5)cc4)ncc3F)cc21 :: 69
Cc1nc2c(F)cc(-c3nc(Nc4ccc(NC(=O)C5(C(=O)Nc6ccc(Cl)c(C(F)(F)F)c6)CC5)cc4)ncc3F)cc2n1C(C)C :: 68
Cc1ccc(NC(=O)C2(C(=O)Nc3ccc(Nc4ncc(F)c(-c5ccc6nnn(C(C)C)c6c5)n4)cc3)CC2)cc1 :: 78
Cc1ccc(NC(=O)C2(C(=O)Nc3ccc(Nc4ncc(F)c(-c5cc(F)c6nc(C)n(C(C)C)c6c5)n4)cc3)CC2)cc1 :: 95
Cc1nc2c(F)cc(-c3nc(Nc4ccc(NC(=O)C5(C(=O)Nc6ccc(C(F)(F)F)cc6)CC5)cc4)ncc3F)cc2n1C(C)C :: 80
CC(C)n1nnc2ccc(-c3nc(Nc4ccc(NC(=O)C5(C(=O)Nc6ccc(Cl)c(C(F)(F)F)c6)CC5)cc4)ncc3F)cc21 :: 41
Cc1ccc(NC(=O)C2(C(=O)NCc3ccc(Nc4ncc(F)c(-c5cc(F)c6nc(C)n(C(C)C)c6c5)n4)cc3)CC2)cc1 :: 95
CC(C)n1nnc2ccc(-c3nc(Nc4ccc(NC(=O)C5(C(=O)Nc6cccc(Cl)c6)CC5)cc4)ncc3F)cc21 :: 60
CC(C)n1nnc2ccc(-c3nc(Nc4ccc(NC(=O)C5(C(=O)Nc6ccc(Br)cc6)CC5)cc4)ncc3F)cc21 :: 52
Cc1nc2c(F)cc(-c3nc(Nc4ccc(CNC(=O)C5(C(=O)Nc6ccc(Br)cc6)CC5)cc4)ncc3F)cc2n1C(C)C :: 90
Cc1nc2c(F)cc(-c3nc(Nc4ccc(NC(=O)C5(C(=O)Nc6ccc(Cl)cc6)CC5)cc4)ncc3F)cc2n1C(C)C :: 74
Cc1nc2c(F)cc(-c3nc(Nc4ccc(NC(=O)C5(C(=O)Nc6cccc(Cl)c6)CC5)cc4)ncc3F)cc2n1C(C)C :: 90
CC(C)n1nnc2ccc(-c3nc(Nc4ccc(NC(=O)C5(C(=O)Nc6cccc(C(F)(F)F)c6)CC5)cc4)ncc3F)cc21 :: 46
Cc1nc2c(F)cc(-c3nc(Nc4ccc(CNC(=O)C5(C(=O)Nc6ccc(Cl)cc6)CC5)cc4)ncc3F)cc2n1C(C)C :: 91
